System: M100512 (Melanoma, cKit 642E)
ASSAY NOTES: Resazurin viability assay 72h, M100512
Assay type: cell-based
CONDITION DESCRIPTION: Homo sapiens, M100512, cKit 642E
READOUT: IC50
Answer with the number, then the unit.

Exam item: Look up IC50 of Cc1ccc2ccc3ccc(C)nc3c2n1 and report it.
Marked response: 108 nM

====

Tested on: NCIH1838 (Lung cancer, NF1loss)
ASSAY NOTES: Resazurin viability assay 72h, NCIH1838
Format: cell-based
CONDITION DESCRIPTION: Homo sapiens, NCI-H1838
READOUT: pIC50
Scale explanation: pIC50 corresponds to minus log10 of a concentration expressed in moles per litre.

Exam item: Give the reported value of pIC50 for this record: Cc1ccc2ccc3ccc(C)nc3c2n1 [Neocuproine, 2,9-dimethyl-1,10-phenanthroline]
Marked response: 6.13
